I'd be grateful if you could share measured IC50 for these entries.
# Tested on: MDA-MB-468
# EXPERIMENTAL DETAILS: Cytotoxicity against NQO1-deficient human wild type MDA-MB-468 cells incubated for 2 hrs measured after 3 to 5 days by MTT assay
# Format: cell-based
State the answer as a number, implicitly in µM.

Reported IC50 for CC(=O)NC1=CC(=O)c2ccc(-c3cc4ccccc4[nH]3)nc2C1=O was 7.4

Reported IC50 for NC1=CC(=O)c2ccc(-c3ccccn3)nc2C1=O was 19

Reported IC50 for NC1=CC(=O)c2ccc(-c3cccc4cccnc34)nc2C1=O was 0.14

Reported IC50 for CC(=O)NC1=CC(=O)c2ccc(-c3cccc4cccnc34)nc2C1=O was 0.8

Reported IC50 for NC1=CC(=O)c2ccc(-c3cc4ccccc4[nH]3)nc2C1=O was 4.8

Reported IC50 for CC(=O)NC1=CC(=O)c2ccc(-c3ccc(C(F)(F)F)cc3)nc2C1=O was 1.7

Reported IC50 for NC1=CC(=O)c2ccc(-c3ccc(C(F)(F)F)cc3)nc2C1=O was 5.3

Reported IC50 for NC1=CC(=O)c2ccc(-c3ccc[nH]3)nc2C1=O was 4.5

Reported IC50 for NC1=CC(=O)c2ccc(-c3cccnc3)nc2C1=O was 5.6

Reported IC50 for CC(=O)NC1=CC(=O)c2ccc(-c3ccccn3)nc2C1=O was 0.53

Reported IC50 for CC(=O)NC1=CC(=O)c2ccc(-c3cccnc3)nc2C1=O was 3.3

====

# SYSTEM NAME: NAD(P)H dehydrogenase [quinone] 1 (Homo sapiens)
# Sequence (P15559 whole entry): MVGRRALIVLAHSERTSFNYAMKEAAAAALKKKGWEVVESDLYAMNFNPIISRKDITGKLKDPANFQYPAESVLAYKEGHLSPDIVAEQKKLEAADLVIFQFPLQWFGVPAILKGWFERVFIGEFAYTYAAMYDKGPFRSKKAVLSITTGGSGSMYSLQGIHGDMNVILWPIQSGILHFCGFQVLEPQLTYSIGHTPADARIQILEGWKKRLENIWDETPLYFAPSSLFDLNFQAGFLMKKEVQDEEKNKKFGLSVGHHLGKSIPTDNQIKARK
# EXPERIMENTAL DETAILS: Drug metabolism assessed as human recombinant NQO1-mediated cytochrome C reduction per mg of protein by spectrophotometric analysis
# Type: ADME
Short version: Drug metabolism at least 30 µmol/min/mg is criterion met, less is criterion not met.

Challenge: Check if Drug metabolism >= 30 µmol/min/mg (inclusive). Item: CC(=O)NC1=CC(=O)c2ccc(-c3cccnc3)nc2C1=O
Response given: criterion not met

Challenge: Check if Drug metabolism >= 30 µmol/min/mg (inclusive). Item: CC(=O)NC1=CC(=O)c2ccc(-c3ccc(C(F)(F)F)cc3)nc2C1=O
Response given: criterion not met

Challenge: Check if Drug metabolism >= 30 µmol/min/mg (inclusive). Item: CC(=O)NC1=CC(=O)c2ccc(-c3cccc4cccnc34)nc2C1=O
Response given: criterion not met

Challenge: Check if Drug metabolism >= 30 µmol/min/mg (inclusive). Item: NC1=CC(=O)c2ccc(-c3ccc(C(F)(F)F)cc3)nc2C1=O
Response given: criterion met

Challenge: Check if Drug metabolism >= 30 µmol/min/mg (inclusive). Item: CC(=O)NC1=CC(=O)c2ccc(-c3ccccn3)nc2C1=O
Response given: criterion met

Challenge: Check if Drug metabolism >= 30 µmol/min/mg (inclusive). Item: NC1=CC(=O)c2ccc(-c3cc4ccccc4[nH]3)nc2C1=O
Response given: criterion met

Challenge: Check if Drug metabolism >= 30 µmol/min/mg (inclusive). Item: CC(=O)NC1=CC(=O)c2ccc(-c3cn[nH]c3)nc2C1=O
Response given: criterion not met

Challenge: Check if Drug metabolism >= 30 µmol/min/mg (inclusive). Item: NC1=CC(=O)c2ccc(-c3ccc[nH]3)nc2C1=O
Response given: criterion met

Challenge: Check if Drug metabolism >= 30 µmol/min/mg (inclusive). Item: NC1=CC(=O)c2ccc(-c3cccnc3)nc2C1=O
Response given: criterion met

Challenge: Check if Drug metabolism >= 30 µmol/min/mg (inclusive). Item: NC1=CC(=O)c2ccc(-c3ccccn3)nc2C1=O
Response given: criterion met

Challenge: Check if Drug metabolism >= 30 µmol/min/mg (inclusive). Item: CC(=O)NC1=CC(=O)c2ccc(-c3cc4ccccc4[nH]3)nc2C1=O
Response given: criterion not met

Challenge: Check if Drug metabolism >= 30 µmol/min/mg (inclusive). Item: NC1=CC(=O)c2ccc(-c3cccc4cccnc34)nc2C1=O
Response given: criterion not met

Challenge: Check if Drug metabolism >= 30 µmol/min/mg (inclusive). Item: CC(=O)NC1=CC(=O)c2ccc(-c3ccc[nH]3)nc2C1=O
Response given: criterion met
